// provenance: ChEMBL document CHEMBL4371033

Residues, ends and D or L forms follow the SMILES beside them.
Measured pKi on UniProt P00747 follows.
Reminder that pKi means the negative base-10 logarithm of the concentration expressed in mol/L.

CC[C@H](C)[C@@H]1NC(=O)[C@@H]2CCCN2C(=O)[C@@H]2CCCN2C(=O)[C@H](CCCNC(=N)N)NC(=O)[C@H](CO)NC(=O)[C@H](CCCNC(=N)N)NC(=O)[C@H](Cc2ccc(O)cc2)NC(=O)[C@@H]2CSSC[C@H](NC1=O)C(=O)N[C@@H](Cc1ccccc1)C(=O)N1CCC[C@H]1C(=O)N[C@@H](CC(=O)O)C(=O)NCC(=O)N[C@@H](CCCNC(=N)N)C(=O)N2 (HELM PEPTIDE1{C.F.P.D.G.R.C.Y.R.S.R.P.P.I}$PEPTIDE1,PEPTIDE1,1:R3-7:R3|PEPTIDE1,PEPTIDE1,1:R1-14:R2$$$V2.0) :: 7.80
CC[C@H](C)[C@@H]1NC(=O)[C@@H]2CCCN2C(=O)[C@@H]2CCCN2C(=O)[C@H](CCCNC(=N)N)NC(=O)[C@H](CO)NC(=O)[C@H](CCCCN)NC(=O)[C@H](Cc2ccc(O)cc2)NC(=O)[C@@H]2CSSC[C@H](NC1=O)C(=O)N[C@@H](Cc1ccccc1)C(=O)N1CCC[C@H]1C(=O)N[C@@H](CC(=O)O)C(=O)NCC(=O)N[C@@H](CCCNC(=N)N)C(=O)N2 (HELM PEPTIDE1{C.F.P.D.G.R.C.Y.K.S.R.P.P.I}$PEPTIDE1,PEPTIDE1,1:R3-7:R3|PEPTIDE1,PEPTIDE1,1:R1-14:R2$$$V2.0) :: 10.39

[in] Provide UniProt P00747 pKi reading for N=C(N)NCCC[C@@H]1NC(=O)CNC(=O)[C@H](CC(=O)O)NC(=O)[C@@H]2CCCN2C(=O)[C@H](Cc2ccccc2)NC(=O)[C@@H]2CSSC[C@H](NC1=O)C(=O)N[C@@H](Cc1ccc(O)cc1)C(=O)N[C@@H](CCCCN)C(=O)N[C@@H](CO)C(=O)N[C@@H](CCCCN)C(=O)N1CCC[C@H]1C(=O)N1CCC[C@H]1C(=O)N[C@@H](CCC(N)=O)C(=O)N2 (HELM PEPTIDE1{C.F.P.D.G.R.C.Y.K.S.K.P.P.Q}$PEPTIDE1,PEPTIDE1,1:R3-7:R3|PEPTIDE1,PEPTIDE1,1:R1-14:R2$$$V2.0) .
[out] 8.74

====

Measured pKi on UniProt P00747 follows.
Residues, ends and D or L forms follow the SMILES beside them.
Reminder that pKi means the negative base-10 logarithm of the concentration expressed in mol/L.

CC[C@H](C)[C@@H]1NC(=O)[C@@H]2CCCN2C(=O)[C@@H]2CCCN2C(=O)[C@H]([C@@H](C)CC)NC(=O)[C@H](CO)NC(=O)[C@H](CCCNC(=N)N)NC(=O)[C@H]([C@@H](C)O)NC(=O)[C@@H]2CSSC[C@H](NC1=O)C(=O)N[C@@H](Cc1ccccc1)C(=O)N1CCC[C@H]1C(=O)N[C@@H](CC(=O)O)C(=O)NCC(=O)N[C@@H](CCCNC(=N)N)C(=O)N2 (HELM PEPTIDE1{C.F.P.D.G.R.C.T.R.S.I.P.P.I}$PEPTIDE1,PEPTIDE1,1:R3-7:R3|PEPTIDE1,PEPTIDE1,1:R1-14:R2$$$V2.0) :: 6.92

As a next step, examine the compound that follows.
[in] For CC[C@H](C)[C@@H]1NC(=O)[C@@H]2CCCN2C(=O)[C@@H]2CCCN2C(=O)[C@H](CCCNC(=N)N)NC(=O)[C@H](CO)NC(=O)[C@H](CCCCN)NC(=O)[C@H]([C@@H](C)O)NC(=O)[C@@H]2CSSC[C@H](NC1=O)C(=O)N[C@@H](Cc1ccccc1)C(=O)N1CCC[C@H]1C(=O)N[C@@H](CC(=O)O)C(=O)NCC(=O)N[C@@H](CCCNC(=N)N)C(=O)N2 (HELM PEPTIDE1{C.F.P.D.G.R.C.T.K.S.R.P.P.I}$PEPTIDE1,PEPTIDE1,1:R3-7:R3|PEPTIDE1,PEPTIDE1,1:R1-14:R2$$$V2.0) , write its pKi.
[out] 8.70

====

Target: Plasminogen (Homo sapiens)
Sequence (P00747 97-580 limits assumed): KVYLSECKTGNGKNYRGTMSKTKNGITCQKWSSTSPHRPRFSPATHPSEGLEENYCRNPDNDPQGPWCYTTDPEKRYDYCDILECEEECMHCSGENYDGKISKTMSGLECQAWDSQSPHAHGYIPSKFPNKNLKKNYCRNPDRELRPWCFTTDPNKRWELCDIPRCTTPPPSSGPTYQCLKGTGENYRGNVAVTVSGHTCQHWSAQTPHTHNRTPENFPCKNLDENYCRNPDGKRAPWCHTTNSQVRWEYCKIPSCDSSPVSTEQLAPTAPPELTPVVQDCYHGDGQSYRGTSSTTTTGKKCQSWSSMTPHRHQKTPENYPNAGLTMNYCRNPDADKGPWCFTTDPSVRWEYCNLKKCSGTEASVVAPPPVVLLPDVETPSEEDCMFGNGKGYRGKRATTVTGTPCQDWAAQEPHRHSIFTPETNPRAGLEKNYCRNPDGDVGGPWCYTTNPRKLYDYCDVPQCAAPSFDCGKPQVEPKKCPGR
Sequence (P00747 581-810 limits assumed): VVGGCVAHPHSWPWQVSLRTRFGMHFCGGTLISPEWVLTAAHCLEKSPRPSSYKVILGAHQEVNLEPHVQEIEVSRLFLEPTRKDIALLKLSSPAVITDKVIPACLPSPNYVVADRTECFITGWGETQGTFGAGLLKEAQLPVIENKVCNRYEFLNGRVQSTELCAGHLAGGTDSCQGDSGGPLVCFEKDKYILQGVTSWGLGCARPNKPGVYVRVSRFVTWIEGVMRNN
Residues, ends and D or L forms follow the SMILES beside them.
EXPERIMENTAL ENDPOINT: pKi
Reminder that pKi means the negative base-10 logarithm of the concentration expressed in mol/L.

Illustrative cases are given below, each with its answer.
CC[C@H](C)[C@@H]1NC(=O)[C@@H]2CCCN2C(=O)[C@@H]2CCCN2C(=O)[C@H](CCCNC(=N)N)NC(=O)[C@H](CO)NC(=O)[C@H](CCCCN)NC(=O)[C@H](Cc2ccc(O)cc2)NC(=O)[C@@H]2CSSC[C@H](NC1=O)C(=O)N[C@@H](Cc1ccccc1)C(=O)N1CCC[C@H]1C(=O)N[C@@H](CC(N)=O)C(=O)NCC(=O)N[C@@H](CCCNC(=N)N)C(=O)N2 (HELM PEPTIDE1{C.F.P.N.G.R.C.Y.K.S.R.P.P.I}$PEPTIDE1,PEPTIDE1,1:R3-7:R3|PEPTIDE1,PEPTIDE1,1:R1-14:R2$$$V2.0) :: 8.92
N=C(N)NCCC[C@@H]1NC(=O)CNC(=O)[C@H](CC(=O)O)NC(=O)[C@@H]2CCCN2C(=O)[C@H](Cc2ccccc2)NC(=O)[C@@H]2CSSC[C@H](NC1=O)C(=O)N[C@@H](Cc1ccc(O)cc1)C(=O)N[C@@H](CCCCN)C(=O)N[C@@H](CO)C(=O)N[C@@H](CCCCN)C(=O)N1CCC[C@H]1C(=O)N1CCC[C@H]1C(=O)N[C@@H](CCCCN)C(=O)N2 (HELM PEPTIDE1{C.F.P.D.G.R.C.Y.K.S.K.P.P.K}$PEPTIDE1,PEPTIDE1,1:R3-7:R3|PEPTIDE1,PEPTIDE1,1:R1-14:R2$$$V2.0) :: 8.60
CC[C@H](C)[C@@H]1NC(=O)[C@@H]2CCCN2C(=O)[C@@H]2CCCN2C(=O)[C@H](CCCCN)NC(=O)[C@H](CO)NC(=O)[C@H](CCCCN)NC(=O)[C@H](Cc2ccccc2)NC(=O)[C@@H]2CSSC[C@H](NC1=O)C(=O)N[C@@H](Cc1ccccc1)C(=O)N1CCC[C@H]1C(=O)N[C@@H](CC(=O)O)C(=O)NCC(=O)N[C@@H](CCCNC(=N)N)C(=O)N2 (HELM PEPTIDE1{C.F.K.S.K.P.P.I.C.F.P.D.G.R}$PEPTIDE1,PEPTIDE1,1:R3-9:R3|PEPTIDE1,PEPTIDE1,1:R1-14:R2$$$V2.0) :: 9.21

As a next step, examine the molecule that follows.
[in] For CC[C@H](C)[C@@H]1NC(=O)[C@@H]2CCCN2C(=O)[C@@H]2CCCN2C(=O)[C@H](CCCCN)NC(=O)[C@H](CO)NC(=O)[C@H](CCCCN)NC(=O)[C@H](Cc2c[nH]c3ccccc23)NC(=O)[C@@H]2CSSC[C@H](NC1=O)C(=O)N[C@@H](Cc1ccccc1)C(=O)N1CCC[C@H]1C(=O)N[C@@H](CC(=O)O)C(=O)NCC(=O)N[C@@H](CCCNC(=N)N)C(=O)N2 (HELM PEPTIDE1{C.F.P.D.G.R.C.W.K.S.K.P.P.I}$PEPTIDE1,PEPTIDE1,1:R3-7:R3|PEPTIDE1,PEPTIDE1,1:R1-14:R2$$$V2.0) , write its pKi.
[out] 9.18

====

Residues, ends and D or L forms follow the SMILES beside them.
Measured pKi on UniProt:P00747 follows.
Reminder that pKi means the negative base-10 logarithm of the concentration expressed in mol/L.

Illustrative cases are given below, each with its answer.
CC[C@H](C)[C@@H]1NC(=O)[C@@H]2CCCN2C(=O)[C@@H]2CCCN2C(=O)[C@H]([C@@H](C)CC)NC(=O)[C@H](CO)NC(=O)[C@H](CCCCN)NC(=O)[C@H](Cc2ccc(O)cc2)NC(=O)[C@@H]2CSSC[C@H](NC1=O)C(=O)N[C@@H](Cc1ccccc1)C(=O)N1CCC[C@H]1C(=O)N[C@@H](CC(=O)O)C(=O)NCC(=O)N[C@@H](CCCNC(=N)N)C(=O)N2 (HELM PEPTIDE1{C.F.P.D.G.R.C.Y.K.S.I.P.P.I}$PEPTIDE1,PEPTIDE1,1:R3-7:R3|PEPTIDE1,PEPTIDE1,1:R1-14:R2$$$V2.0) :: 9.85
CC[C@H](C)[C@@H]1NC(=O)[C@@H]2CCCN2C(=O)[C@@H]2CCCN2C(=O)[C@H](CCCCN)NC(=O)[C@H](CO)NC(=O)[C@H](CCCCN)NC(=O)[C@H](Cc2ccc(O)cc2)NC(=O)[C@@H]2CSSC[C@H](NC1=O)C(=O)N[C@@H](Cc1ccccc1)C(=O)N1CCC[C@H]1C(=O)N[C@@H](CC(=O)O)C(=O)NCC(=O)N[C@@H](CCCNC(=N)N)C(=O)N2 (HELM PEPTIDE1{C.F.P.D.G.R.C.Y.K.S.K.P.P.I}$PEPTIDE1,PEPTIDE1,1:R3-7:R3|PEPTIDE1,PEPTIDE1,1:R1-14:R2$$$V2.0) :: 10.29

[in] Provide UniProt:P00747 pKi reading for N=C(N)NCCC[C@@H]1NC(=O)CNC(=O)[C@H](CC(=O)O)NC(=O)[C@@H]2CCCN2C(=O)[C@H](Cc2ccccc2)NC(=O)[C@@H]2CSSC[C@H](NC1=O)C(=O)N[C@@H](Cc1ccc(O)cc1)C(=O)N[C@@H](CCCCN)C(=O)N[C@@H](CO)C(=O)N[C@@H](CCCCN)C(=O)N1CCC[C@H]1C(=O)N1CCC[C@H]1C(=O)N[C@@H](CCCNC(=N)N)C(=O)N2 (HELM PEPTIDE1{C.F.P.D.G.R.C.Y.K.S.K.P.P.R}$PEPTIDE1,PEPTIDE1,1:R3-7:R3|PEPTIDE1,PEPTIDE1,1:R1-14:R2$$$V2.0) .
[out] 8.33

[in] Provide UniProt:P00747 pKi reading for CC[C@H](C)[C@@H]1NC(=O)[C@@H]2CCCN2C(=O)[C@@H]2CCCN2C(=O)[C@H](CCCCN)NC(=O)[C@H](CO)NC(=O)[C@H](CCCNC(=N)N)NC(=O)[C@H](Cc2ccc(O)cc2)NC(=O)[C@@H]2CSSC[C@H](NC1=O)C(=O)N[C@@H](Cc1ccccc1)C(=O)N1CCC[C@H]1C(=O)N[C@@H](CC(=O)O)C(=O)NCC(=O)N[C@@H](CCCNC(=N)N)C(=O)N2 (HELM PEPTIDE1{C.F.P.D.G.R.C.Y.R.S.K.P.P.I}$PEPTIDE1,PEPTIDE1,1:R3-7:R3|PEPTIDE1,PEPTIDE1,1:R1-14:R2$$$V2.0) .
[out] 8.08
